- Test system: HCT-116 colon
- EXPERIMENT SUMMARY: NCI-60 one-dose screen, 48 h (100 = growth as untreated, 0 = no growth, -100 = all killed)
- CONDITIONS USED: 10 µM unless noted
Compounds without any hit were thinned out: in the full panel of roughly 83,000, 20% have a hit.
As shown below, each of these compounds has a reported growth value.
Please respond with the number in % and leave the unit unwritten.

{"columns": ["COMPOUND", "UNIT DESCRIPTOR", "growth"],
 "data": [
  ["CC12CCC3C(CC=C4CC(O)CCC43C)C1C/C(=C\\N1CCOCC1)C2=O (configuration not stated)", "%", 101]
]}

Ask | // fetch growth given entry CC(=O)OC1CCC2(C)C(=CCC3C4CC(CN5CC5)C(=O)C4(C)CCC32)C1 (configuration not stated)
Reply | 74.4

Ask | Using the record for CC(C)CCC1(CCO)C(=O)NC(=S)NC1=O , state its measured growth.
Reply | 104

Ask | Provide one value: measured growth of c1ccc(CCN2CCCCC2Cc2ccccc2)cc1 (configuration not stated)
Reply | 78.1

Ask | Quick one: give measured growth for ClCCN(CCCl)c1ccc(C=NCCc2c[nH]c3ccccc23)cc1
Reply | 79

Ask | Assign growth to the following record: CNC(=O)Oc1ccccc1
Reply | 106

Ask | Identify measured growth associated with O=[N+]([O-])c1cc([N+](=O)[O-])c(Cl)c(Cl)c1Cl
Reply | -53.9

* * *

- Tested on: LOX IMVI melanoma
- EXPERIMENT SUMMARY: NCI-60 one-dose screen, 48 h
- CONDITIONS USED: 10 µM unless noted
- Protocol: Growth inhibition of the LOX IMVI human tumor cell line is measured as a screen for anti-cancer activity. Cells are grown in 96 well plates and exposed to the test compound for 48 hours. Compounds are tested at a single concentration, which is 10^-5 M for most compounds. The reported endpoint is percent growth (GI% or GIPRCNT), where numbers from 0 - 100% represent growth inhibition, and numbers from -100% - 0 represent cell death. For example, a value of 40 represents 60% growth inhibition. […]
The panel holds about 83,000 compounds, 20% with a hit somewhere; the sample as a whole holds those more often. Active and inactive are the calls of the source. Rule for the calls: active = growth percent below 10; inactive = the rest.
Write down the outcome that applies. Available outcomes: active, inactive

The examples below pair each entry with its known result.
{"columns": ["COMPOUND", "CLASS"],
 "data": [
  ["CC(C)CCC1(CCO)C(=O)NC(=S)NC1=O", "inactive"],
  ["Cc1cccc(N(C)c2cccc3c2C(=O)[Se]C3)c1C", "inactive"],
  ["O=C1NC(=O)C(O)(C2(O)C(=O)NC(=O)NC2=O)C(=O)N1", "inactive"]
]}

Ask | Per the assay record, what outcome was assigned to CC1(C)N=C(N)N=C(N)N1c1ccc(OCCCCNC(=O)Nc2cccc(S(=O)(=O)F)c2)c(Cl)c1 ?
Reply | inactive

Ask | Identify the outcome logged in this assay for the compound shown: CNC(=O)Oc1ccccc1
Reply | inactive

Ask | // outcome(item) with item = S=P(Nc1ccccc1)(Nc1ccccc1)c1ccccc1
Reply | inactive

Ask | Entry CCN(CC)CCOc1c(C(C)C)cccc1C(C)C : call = ?
Reply | inactive

Ask | Given Oc1ccccc1OB(Oc1ccccc1O)N(CCCl)CCCl , state the outcome it received in this test.
Reply | inactive

Ask | # fetch the recorded call for Oc1ccc(O)c2c1C1(Cl)C(Cl)=C(Cl)C2(Cl)C1(Cl)Cl here
Reply | inactive

Ask | Would you mind telling me which call this test gave Cc1ccc(N)cc1[As]=[As]c1cc(N)ccc1C (stereo unspecified) ?
Reply | active

Ask | # fetch the recorded call for CCCCCCCC(=O)OCC/C=C/C1OC1C1OC(=O)/C=C\C=C\c2nc(oc2C)/C=C(/C)CCC2OC2C1OC(=O)NC(C)=O (stereo unspecified) here
Reply | active

This collection of values is drawn from PubChem BioAssay (NCI).
